# measured_on: cis P-tau (Homo sapiens, UniProt P10636)
# Sequence (P10636 1-441 isoform P10636-8): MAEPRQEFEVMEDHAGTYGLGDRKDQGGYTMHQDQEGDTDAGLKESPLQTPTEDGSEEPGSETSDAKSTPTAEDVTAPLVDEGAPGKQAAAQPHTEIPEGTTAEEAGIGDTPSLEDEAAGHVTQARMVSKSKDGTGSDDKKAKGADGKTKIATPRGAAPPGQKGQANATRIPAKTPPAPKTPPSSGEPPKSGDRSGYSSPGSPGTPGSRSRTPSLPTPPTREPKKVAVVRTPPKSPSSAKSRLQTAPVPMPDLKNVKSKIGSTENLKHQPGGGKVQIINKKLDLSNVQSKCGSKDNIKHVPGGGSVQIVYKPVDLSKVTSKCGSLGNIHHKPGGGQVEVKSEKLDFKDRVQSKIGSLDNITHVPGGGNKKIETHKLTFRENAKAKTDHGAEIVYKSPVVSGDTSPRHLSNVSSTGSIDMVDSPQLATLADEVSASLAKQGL
# assay_overview: Elimination of cis P-tau in cultured neurons stressed by hypoxia
# Format: cell-based
# Set-up: endogenous in cells
# run_parameters: 2.5 μg/ml, 5 μg/ml and 10 μg/ml
reported_property: elimination of cis P-tau in neurons under hypoxic conditions (images)

Ask | Need elimination of cis P-tau in neurons under hypoxic conditions (images) of HT10: humanized cis-pThr231-tau mAb; heavy chain variable domain SEQ ID NO: 26, light chain variable domain SEQ ID NO: 19 (antibody, V domains shown) VH: QVQLVQSGAEVKKPGASVKMSCKASGYTFTSYWIHWVKQRPGQGLEWIGVIDPSDSYTRYNQKFKGRATLTVDTSASTAYMELSSLRSEDTAVYYCTTWEVDYWGQGTLVTVSS VL: DVVMTQSPLSLPVTLGQPASISCRSSQSLVHSDGNTYLHWYLQKPGQSPQLLIYKVSNRFSGVPDRFSGSGSGTDFTLKISRVEAEDVGVYYCSQSTHVPWTFGGGTKVEIK , thanks.
Reply | elimination of cis P-tau

Ask | // next record HT13: mouse-human chimera control antibody; heavy chain variable domain SEQ ID NO: 24, light chain variable domain SEQ ID NO: 15 (antibody, V domains shown) VH: QVQLQQPGAELVKPGASVKMSCKASGYTFTSYWIHWVKQRPGQGLEWIGVIDPSDSYTRYNQKFKGKATLTVDTSSSTAYMQLSSLTSEDSAVYYCTTWEVDYWGQGTTLTVSS VL: DVVMTQTPLSLPVSLGDQASISCRSSQSLVHSDGNTYLHWYLQKPGQSPKLLIYKVSNRFSGVPDRFSGSGSGTDFTLKISRLEAEDLGVYFCSQSTHVPWTFGGGTKLEIK
Reply | elimination of cis P-tau
